assay: Spectrophotometric pKa determination of the imine nitrogen; type: physicochemical; settings: percent ionization at pH 7.4
Counter-ions that a name gives are not always drawn.
parameter: % ionized (%)
Give the number; % is assumed, so skip it.

| molecule | units | % ionized |
| --- | --- | --- |
| C(=C1/CCCN=C1c1cccnc1)/c1ccc2c(c1)OCCO2 | % | 59.11 |
| COc1ccc2cc(/C=C3\CCCN=C3c3cccnc3)ccc2c1 [dihydrochloride] | % | 43.67 |
| C(=C1/CCCN=C1c1cccnc1)/c1ccc2c(c1)OCO2 | % | 63.48 |

Would you kindly share the measured % ionized for C(=C1/CCCN=C1c1cccnc1)/c1cc2ccccc2o1 ? 33.90
